# Test system: Wild type
# procedureText: S. aureus survival, RN4220 and DeltatarO strains – OD600, teichoic acid synthesis inhibitors, primary screen (AID 463173)
# reportedConditions: S. aureus RN4220 wild type/DeltatarO growth, OD600, 18 h, active compounds read low, screened at 18.75 µg/mL (by protocol)
Hit rate of the full screen: of about 52,000 compounds, about 1,700 (3.3%) were called active. The sample as a whole holds a higher share of actives than the screen did.
We label by threshold. Values of survival strictly beneath 70% are met. Values of 70% and up are not met.

Would you kindly verify if survival of `Cc1ccc(Nc2ncccc2C(=O)NC2CCCCC2)cc1` is strictly less than 70%?
not met

Would you kindly verify if survival of `CCOc1ccc(-c2nc(SCC(=O)Nc3ccc4c(c3)OCO4)c(-c3ccc(F)cc3)[nH]2)cc1` is strictly less than 70%?
not met

Would you kindly verify if survival of `CC(C)(C)NC(=O)c1oc2ccccc2c1NC(=O)c1ccc(F)cc1` is strictly less than 70%?
not met

Would you kindly verify if survival of `CCOc1ccc(NC(=O)c2oc3ccccc3c2NC(=O)C2CCCCC2)cc1` is strictly less than 70%?
not met

Would you kindly verify if survival of `O=C(Nc1ccc(F)cc1)c1oc2ccccc2c1NC(=O)C1CCCCC1` is strictly less than 70%?
met

Would you kindly verify if survival of `CCOc1ccc(NC(=O)CSc2nc(-c3cccs3)cc(C(F)(F)F)c2C#N)cc1` is strictly less than 70%?
met
